Origin of measurements: ChEMBL document CHEMBL1201862

# system.under.test: DNA repair and recombination protein RAD54-like (Homo sapiens, UniProt Q92698)
# Sequence (Q92698 whole entry): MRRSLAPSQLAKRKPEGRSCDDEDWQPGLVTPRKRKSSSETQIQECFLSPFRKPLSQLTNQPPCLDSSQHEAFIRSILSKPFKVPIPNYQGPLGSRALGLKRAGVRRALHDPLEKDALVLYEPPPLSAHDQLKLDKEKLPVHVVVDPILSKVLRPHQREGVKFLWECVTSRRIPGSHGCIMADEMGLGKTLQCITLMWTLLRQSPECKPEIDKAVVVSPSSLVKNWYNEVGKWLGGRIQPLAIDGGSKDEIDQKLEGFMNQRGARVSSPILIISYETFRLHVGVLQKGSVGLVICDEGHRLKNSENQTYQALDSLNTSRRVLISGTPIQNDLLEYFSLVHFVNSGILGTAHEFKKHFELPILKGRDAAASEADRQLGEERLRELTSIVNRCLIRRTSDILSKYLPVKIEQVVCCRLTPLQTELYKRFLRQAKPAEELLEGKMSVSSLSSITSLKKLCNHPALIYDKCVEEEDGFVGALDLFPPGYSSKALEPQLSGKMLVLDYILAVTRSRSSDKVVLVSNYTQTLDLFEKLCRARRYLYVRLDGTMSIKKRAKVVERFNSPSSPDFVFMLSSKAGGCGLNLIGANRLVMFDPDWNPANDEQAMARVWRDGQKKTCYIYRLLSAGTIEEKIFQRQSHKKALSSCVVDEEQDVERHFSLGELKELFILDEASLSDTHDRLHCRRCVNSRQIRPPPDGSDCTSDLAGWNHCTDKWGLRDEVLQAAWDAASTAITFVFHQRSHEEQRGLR
# method.notes: RAD54 Holliday junction migration blockers – biochemical, fluorescence, cherry-picked samples, dose series, confirmation (AID 651657)
# Type: functional
Active and inactive are the calls of the source.
Recorded AC50, one value per entry.
recorded.metric: AC50

[[record]]
smiles = "CCCc1nc2c(=O)n(C)c(=O)nc-2n(C)n1"
system_under_test = "DNA repair and recombination protein RAD54-like (Homo sapiens, UniProt Q92698)"
recorded_metric = "AC50"
endpoint_result = "1.13 µM (active)"

[[record]]
smiles = "CCN(CC)Cc1cc(Nc2ccnc3cc(Cl)ccc23)ccc1O"
system_under_test = "DNA repair and recombination protein RAD54-like (Homo sapiens, UniProt Q92698)"
recorded_metric = "AC50"
endpoint_result = "10.3 µM (active)"

[[record]]
smiles = "CN(C)CCNC(=O)c1c(NC(=O)c2ccccc2)sc2c1CCCC2"
system_under_test = "DNA repair and recombination protein RAD54-like (Homo sapiens, UniProt Q92698)"
recorded_metric = "AC50"
endpoint_result = "56.4 µM (active)"

[[record]]
smiles = "COc1ccccc1Nc1nc(NCCCN(C)C)nc(N)c1[N+](=O)[O-]"
system_under_test = "DNA repair and recombination protein RAD54-like (Homo sapiens, UniProt Q92698)"
recorded_metric = "AC50"
endpoint_result = "11.1 µM (active)"


* * *

# system.under.test: Zinc finger protein mex-5 (Caenorhabditis elegans)
# Sequence (Q9XUB2 whole entry): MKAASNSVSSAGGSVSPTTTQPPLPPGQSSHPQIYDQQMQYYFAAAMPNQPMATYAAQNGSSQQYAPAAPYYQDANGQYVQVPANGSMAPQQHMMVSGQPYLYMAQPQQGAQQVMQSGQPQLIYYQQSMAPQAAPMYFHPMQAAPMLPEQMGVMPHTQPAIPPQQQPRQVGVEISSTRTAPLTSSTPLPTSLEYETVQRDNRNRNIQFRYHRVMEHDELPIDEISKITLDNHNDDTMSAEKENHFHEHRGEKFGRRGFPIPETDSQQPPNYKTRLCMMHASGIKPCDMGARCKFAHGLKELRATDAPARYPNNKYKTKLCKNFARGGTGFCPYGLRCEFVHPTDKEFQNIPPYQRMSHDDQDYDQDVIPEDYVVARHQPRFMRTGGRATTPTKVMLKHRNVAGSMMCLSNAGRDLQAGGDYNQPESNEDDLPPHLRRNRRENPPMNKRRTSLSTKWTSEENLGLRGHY
# method.notes: potency of MEX-5 RNA-binding blockers – biochemical, C. elegans, fluorescence polarization, dose response (AID 1960)
Active and inactive are the calls of the source.
Recorded EC50, one value per entry.
recorded.metric: EC50

[[record]]
molecule = "COC(=O)CNC(=O)C1Nc2ccc(OC(F)(F)F)cc2C2C=CCC12 (centres undefined)"
recorded_metric = "EC50"
endpoint_result = "> 300 µM (not active)"

[[record]]
molecule = "Cc1cccc(N=Nc2c(O)[nH]c3ccc(Br)cc23)c1"
recorded_metric = "EC50"
endpoint_result = "26.9 µM (inconclusive)"

[[record]]
molecule = "CC(C)OC(=O)c1nn2c(C(F)(F)F)cc(-c3ccc(Br)o3)nc2c1Br"
recorded_metric = "EC50"
endpoint_result = "> 300 µM (not active)"

[[record]]
molecule = "Cc1n[nH]c(O)c1N=Nc1ccc(S(N)(=O)=O)cc1"
recorded_metric = "EC50"
endpoint_result = "9.43 µM (inconclusive)"

[[record]]
molecule = "CC(=O)c1ccc(-c2ccc(/C=C(/Sc3n[nH]c(C)n3)C(=O)O)o2)cc1"
recorded_metric = "EC50"
endpoint_result = "14.9 µM (active)"

[[record]]
molecule = "Cc1ccc(/N=C/c2cc(Br)cc(Cl)c2O)cc1"
recorded_metric = "EC50"
endpoint_result = "> 300 µM (not active)"

[[record]]
molecule = "Cc1ccc(Nc2ccc([N+](=O)[O-])ccc2=O)cc1"
recorded_metric = "EC50"
endpoint_result = "> 300 µM (not active)"

[[record]]
molecule = "O=c1c2ccccc2nc(N/N=C/c2ccc(O)cc2)n1O"
recorded_metric = "EC50"
endpoint_result = "> 300 µM (inconclusive)"

[[record]]
molecule = "COCCNC(=O)C1Nc2ccc(C(F)(F)F)cc2C2C=CCC12 (centres undefined)"
recorded_metric = "EC50"
endpoint_result = "> 300 µM (not active)"

[[record]]
molecule = "COc1ncnc2c1N=C1CC(C)(C)CC(NCCC(=O)O)=C1S2"
recorded_metric = "EC50"
endpoint_result = "13.8 µM (active)"

[[record]]
molecule = "CC1(C)Cc2c(cnn2-c2cccc(F)c2)C(NC(=O)CSc2ccccn2)C1 (centres undefined)"
recorded_metric = "EC50"
endpoint_result = "> 150 µM (not active)"

[[record]]
molecule = "CCOc1cc(/C=C2\\C(=O)NN(c3ccccc3)C2=O)cc([N+](=O)[O-])c1O"
recorded_metric = "EC50"
endpoint_result = "36.2 µM (active)"

[[record]]
molecule = "Cc1nnc(O)nc1N/N=C/c1ccc(O)c([N+](=O)[O-])c1"
recorded_metric = "EC50"
endpoint_result = "65.5 µM (active)"

[[record]]
molecule = "COC(=O)c1cc2n3ccccc3c(C)c(-c3ccccc3)c-2c1C(=O)OC"
recorded_metric = "EC50"
endpoint_result = "16.6 µM (active)"


* * *

Recorded AC50, one value per entry.
# system.under.test: Cytochrome P450 2C9 (Homo sapiens, UniProt P11712)
# Sequence (P11712 whole entry): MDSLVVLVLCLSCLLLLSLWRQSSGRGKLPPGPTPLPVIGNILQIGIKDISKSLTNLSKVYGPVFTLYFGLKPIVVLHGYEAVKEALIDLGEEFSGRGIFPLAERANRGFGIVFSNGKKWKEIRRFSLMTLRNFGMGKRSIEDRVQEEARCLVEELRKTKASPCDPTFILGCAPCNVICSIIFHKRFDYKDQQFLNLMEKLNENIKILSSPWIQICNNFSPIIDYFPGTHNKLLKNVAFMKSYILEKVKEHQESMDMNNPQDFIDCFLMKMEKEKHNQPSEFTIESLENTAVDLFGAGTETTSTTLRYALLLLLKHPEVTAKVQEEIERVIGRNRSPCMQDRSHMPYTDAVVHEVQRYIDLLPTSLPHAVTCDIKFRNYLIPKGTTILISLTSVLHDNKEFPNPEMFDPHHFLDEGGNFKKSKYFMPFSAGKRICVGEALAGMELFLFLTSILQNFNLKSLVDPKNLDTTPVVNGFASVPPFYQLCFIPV
recorded.metric: AC50

[[record]]
compound = "CN(C)c1ccc(-c2cncnc2NCCc2cnc[nH]2)cc1"
endpoint_result = "0.501 µM (inconclusive)"

[[record]]
compound = "COc1ccc(CNc2ccnc(-c3cccc(C#N)c3)n2)c(OC)c1"
endpoint_result = "0.501 µM (inconclusive)"

[[record]]
compound = "CC(=O)c1cccc(NC(=O)c2csc(-n3nc(C)cc3C(F)(F)F)n2)c1"
endpoint_result = "1 µM (inconclusive)"

[[record]]
compound = "O=C(COc1ccc([N+](=O)[O-])cc1)Nc1ccc(C(=O)NCc2cccnc2)cc1"
endpoint_result = "22.4 µM (inconclusive)"

[[record]]
compound = "CCOc1ccc(CSC(CC(=O)O)C(=O)O)cc1 (stereo unspecified)"
endpoint_result = "15.8 µM (inconclusive)"

[[record]]
compound = "Cc1cccc(CNc2ncnc3ccc(-c4ccoc4)cc23)c1"
endpoint_result = "1 µM (inconclusive)"

[[record]]
compound = "CCn1c2ccccc2c2cc(NC(=O)C(C)Oc3ccc(OC)cc3)ccc21 (stereo unspecified)"
endpoint_result = "7.94 µM (inconclusive)"

[[record]]
compound = "CCCC[C@@H]1C[C@H]1C(NC(=O)c1ccccc1)c1ccc(-c2ccccc2)cc1 (stereo partly specified)"
endpoint_result = "2 µM (inconclusive)"

[[record]]
compound = "O=C(NCCc1ccccc1)c1noc2c1CCc1ccccc1-2"
endpoint_result = "7.08 µM (inconclusive)"

[[record]]
compound = "CCCCNC1=N/C(=C\\c2ccco2)C(=O)N1c1ccccc1"
endpoint_result = "4.47 µM (inconclusive)"

[[record]]
compound = "COC(=O)[C@@]1(Cc2ccc(OC)cc2)[C@H]2c3cc(C(=O)N4CCCC4)n(CCn4cc([N+](=O)[O-])nc4C)c3C[C@H]2CN1C(=O)c1ccccc1"
endpoint_result = "31.6 µM (inconclusive)"

[[record]]
compound = "[H]/N=C(\\N/C(=N/[H])NCCCCCCNC(=N)NC(=N)Nc1ccc(Cl)cc1)Nc1ccc(Cl)cc1 [CHLORHEXIDINE]"
endpoint_result = "15.8 µM (inconclusive)"

[[record]]
compound = "CCC(C(=O)c1ccccc1)N(C(=O)c1ccccc1Cl)N1C(=O)C2C3C=CC(C3)C2C1=O (stereo unspecified)"
endpoint_result = "10 µM (inconclusive)"

[[record]]
compound = "O=S(=O)(c1ccccc1)N1CCC2(CCN(c3ccccc3)CC2)CC1"
endpoint_result = "39.8 µM (inconclusive)"

[[record]]
compound = "C[C@]12C=CC(=O)C=C1CC[C@@H]1[C@H]3C[C@@H](O)[C@](O)(C(=O)CO)[C@@]3(C)C[C@H](O)[C@]12F"
endpoint_result = "15.8 µM (inconclusive)"

[[record]]
compound = "CC[C@@H](CO)Nc1nc(NCc2ccccc2)c2ncn(C(C)C)c2n1 [(S)-ROSCOVITINE]"
endpoint_result = "0.316 µM (inconclusive)"

[[record]]
compound = "COC(=O)N1CCC2(CCN(C(=O)NC(C)C)CC2)CC1"
endpoint_result = "12.6 µM (inconclusive)"

[[record]]
compound = "CCCCOC(=O)CCc1c(C)nc(O)c(C#N)c1C"
endpoint_result = "0.282 µM (inconclusive)"

[[record]]
compound = "COCCN1C(=O)C(O)=C(C(=O)c2cccc(OC)c2)C1c1ccc(C)o1 (stereo unspecified)"
endpoint_result = "31.6 µM (inconclusive)"

[[record]]
compound = "COC1=C(OC)C(=O)c2ccccc2C1=O"
endpoint_result = "39.8 µM (inconclusive)"

[[record]]
compound = "Cc1cccc(CNc2ncnc3ccc(-c4c(C)noc4C)cc23)c1"
endpoint_result = "1 µM (inconclusive)"


* * *

# method.notes: Luminescence Cell-Based Dose Confirmation HTS to Identify Inhibitors of Platelet Dense Granule Release. [Related pubchem assays: 1663 (Primary HTS), 1678 (Summary of Project)]
# Assay type: functional
Active and inactive are the calls of the source.
Recorded EC50, one value per entry.
recorded.metric: EC50

[[record]]
compound = "Cc1cc(Nc2cccc([N+](=O)[O-])c2)c2cccc(C)c2n1"
recorded_metric = "EC50"
endpoint_result = "> 112 µM (not active)"

[[record]]
compound = "Cc1n[nH]c(S/C(C(=O)O)=C2/C(=O)Nc3ccccc32)n1"
recorded_metric = "EC50"
endpoint_result = "> 112 µM (not active)"

[[record]]
compound = "COc1ccc(/C=N/N=C(/N)N[N+](=O)[O-])c(OC)c1"
recorded_metric = "EC50"
endpoint_result = "2.39 µM (active)"

[[record]]
compound = "N#CCCN(C(=O)COC(=O)CCc1c[nH]c2ccccc12)c1ccc(F)cc1"
recorded_metric = "EC50"
endpoint_result = "45.7 µM (active)"

[[record]]
compound = "Cc1ccc(NC(=O)CC2C(=O)NC3CCCCC3N2C(=O)c2ccc(F)cc2)cc1C (stereo not given)"
recorded_metric = "EC50"
endpoint_result = "> 112 µM (not active)"

